System: HEK-293T
Experiment: Multiplex assay against HEK293T
Type: toxicity, cell-based
Conditions: human, 24 h, 1 µM, compound concentration 1 uM, replicate 1
Quantity kind: Total Cell Count
Reply with the value as a number alone.

Here are 8 molecules together with their reported answers.
[
  {
    "Molecule": "O=c1cc(N2CCOCC2)oc2c(-c3cccc4c3sc3ccccc34)cccc12",
    "Total Cell Count": 310
  },
  {
    "Molecule": "CC(C)OC(=O)N1CCC(Oc2ncnc3c2cnn3-c2ccc(S(C)(=O)=O)cc2F)CC1",
    "Total Cell Count": 254
  },
  {
    "Molecule": "Cl.O=C(O)c1cc(-c2ccc(C3CCNCC3)cc2)c2ccc(-c3ccc(C(F)(F)F)cc3)cc2c1",
    "Total Cell Count": 160
  },
  {
    "Molecule": "Cc1nc(N2CC[C@H](O)C2)ncc1-c1cc(C(F)(F)F)cc2[nH]ncc12",
    "Total Cell Count": 702
  },
  {
    "Molecule": "CCOC(=O)Nc1cc(-c2ccc(C)c(NS(C)(=O)=O)c2)nn2c(C)nnc12",
    "Total Cell Count": 702
  },
  {
    "Molecule": "Cc1cccc(CN2CCN(C(c3ccccc3)c3ccc(Cl)cc3)CC2)c1.Cl.Cl (centres undefined)",
    "Total Cell Count": 204
  },
  {
    "Molecule": "CC(C)(C)NC[C@H](O)COc1nsnc1N1CCOCC1 [TIMOLOL]",
    "Total Cell Count": 293
  },
  {
    "Molecule": "COc1ccc(-c2ccc3ncc4c(c3c2)n(-c2ccc(N3CCNCC3)c(C(F)(F)F)c2)c(=O)n4C)cn1.O=C(O)/C=C\\C(=O)O [BGT-226]",
    "Total Cell Count": 358
  }
]

Now consider the entry below.
Query: Can you look up the measured Total Cell Count of CC1=C(C(=O)Nc2cc3cn[nH]c3cc2F)C(c2ccc(C(F)(F)F)cc2)CC(=O)N1 (centres undefined) for me?
Response: 443

---

Tested on: Fibroblast
Test: Multiplex assay against human fibroblast
Format: toxicity, cell-based
Conditions: 12 h, 10 µM, compound concentration 10 uM, replicate 1
The following compounds are listed with their measured Population Membrane Permeable-Phenotype (%) values.
Write the number in % without appending the unit.

[
  {
    "Compound": "CC1=C(C(=O)Nc2cc3cn[nH]c3cc2F)C(c2ccc(C(F)(F)F)cc2)CC(=O)N1 (stereo not drawn)",
    "Value units": "%",
    "Numeric result": 24
  },
  {
    "Compound": "CC(C)Oc1ccccc1C(=O)Nc1ccccc1C(=O)Nc1cccc(S(=O)(=O)C(F)(F)F)c1",
    "Value units": "%",
    "Numeric result": 35
  },
  {
    "Compound": "COc1cc(Nc2nccc(-c3cnn4nc(OC)ccc34)n2)cc(C(F)(F)F)c1",
    "Value units": "%",
    "Numeric result": 13
  },
  {
    "Compound": "CC(C)OC(=O)N1CCC(Oc2ncnc3c2cnn3-c2ccc(S(C)(=O)=O)cc2F)CC1",
    "Value units": "%",
    "Numeric result": 17
  },
  {
    "Compound": "Cc1cccc(CN2CCN(C(c3ccccc3)c3ccc(Cl)cc3)CC2)c1.Cl.Cl (stereo not drawn)",
    "Value units": "%",
    "Numeric result": 15
  }
]

Query: Using the record for C[C@]12CC[C@@H]3c4ccc(O)cc4CC[C@H]3[C@@H]1CC[C@@H]2O , report its Population Membrane Permeable-Phenotype (%).
Response: 20

Query: Record: O=C(c1cc2c(cc1F)OC(c1ccc(F)cc1)(c1ccc(Cl)cc1Cl)O2)N1CCOCC1 (stereo not drawn)
Response: 4

Query: COc1ccccc1CN[C@H]1C2CCN(CC2)[C@H]1C(c1ccccc1)c1ccccc1 ?
Response: 6

Query: Next compound: CN1CCN(Cc2ccc(Nc3ncc(Cl)c(Nc4ccccc4S(=O)(=O)N(C)C)n3)cc2)CC1
Response: 22

Query: And what about the compound CC(C)CC(=O)Nc1[nH]nc2c1CN(C(=O)C1CCN(C)CC1)C2(C)C ?
Response: 4

Query: Queued: Cl.O=C(O)c1cc(-c2ccc(C3CCNCC3)cc2)c2ccc(-c3ccc(C(F)(F)F)cc3)cc2c1
Response: 5

Query: Same thing, different compound: C=CC(=O)Nc1cccc(Oc2nc(Nc3ccc(N4CCN(C)CC4)cc3OC)ncc2Cl)c1
Response: 7

Query: Cool, now Cc1c[nH]c2nccc(Oc3c(F)cc(Nc4cc(Cl)nc(N)n4)cc3F)c12
Response: 21

Query: Same again, this time with O=c1[nH]c2ccccc2n1C1CCN(Cc2ccc(-c3[nH]c4cc5ncnc5cc4nc3-c3ccccc3)cc2)CC1
Response: 33

Query: Similarly, CCc1ccc(OCc2ccccc2C(=O)Nc2ccc3nc(C)cc(N)c3c2)cc1.Cl ?
Response: 16
